B1: Pistol ribozyme (parent)
chain: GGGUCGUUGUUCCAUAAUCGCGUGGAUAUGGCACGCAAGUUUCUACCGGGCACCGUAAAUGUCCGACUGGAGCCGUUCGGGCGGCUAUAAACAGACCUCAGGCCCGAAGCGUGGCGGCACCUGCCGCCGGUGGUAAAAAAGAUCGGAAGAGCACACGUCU

Variants of: B1
measurement_protocol: aptazyme ON/OFF ratio, guanine; higher = stronger switching; co-transcriptional cleavage with and without guanine
measure_name: aptazyme ON/OFF ratio
The answer should be a number; do not append a unit.

Consider the variant U7A U8A G9U U10A C12U C13U and give its measured aptazyme ON/OFF ratio.
1.13

// next record U7G U8G U10C C12A C13G
1.27

// next record U8C G9A U10C U11C C12A C13U
1.1

// next record U7A U8G G9A U10G U11C C12U
1.16

// next record U7G U8C G9C U10G U11C C12U
1.12

// next record U7A U8G G9A U11C C12A C13A
1.14

// next record U7C G9C U10G U11A C12U
1.15

// next record U7G U8C G9U U10A U11A C12G C13A
1.07

// next record U7C U8C G9U U10A U11A C12G C13G
1.19

// next record U7C G9A C12U C13A
1.22

// next record U7C U8G G9U U10C U11C C12U
1.1

// next record U7G G9U U10G U11G C12A C13G
1.07

// next record U7A U8C G9A U10G U11C C12A C13U
1.23

// next record U7A U8A U11C C12G C13A
1.25

// next record U7G U8A U11C
2.05

// next record U7C G9A U11C C12U C13G
1.02

// next record U7A U8C G9A U10C U11C C12G C13A
1.06

// next record U7A U8A G9A U10G C12G C13G
1.11

// next record U7A U8G G9A U10A U11A C13A
1.19

// next record U8G G9C U11G C13G
1.04

// next record U7G U8A G9U U10A C12A C13A
1.04

// next record U7A U8G G9A U10G U11C C13G
1.1

// next record G9A U10A U11C C13G
1.09

// next record U8C G9C U10C U11G C12G C13A
1.13

// next record U7A G9U U10C U11G C12G
1.09

// next record U8C G9C U10C U11G C12A
1.1

// next record U7A U8A G9A U11C C13A
1.06

// next record U8A U10G U11A C12A C13A
1.3

// next record U7A G9U U10C C12G C13A
1.07

// next record U7G G9C U11G C13G
1.31

// next record U7A U8A G9A U10A C12A
1.28

// next record U8C G9C C12G C13A
1.14

// next record U7C U8C G9A U10C U11A C12U C13G
1.27

// next record U7A U10C U11A C12A
1.23

// next record U7C U8C G9C U10A C13U
1.35

// next record U7G U11A C12A C13G
1.14

// next record U7A U8G G9A U10G U11A C12G C13A
1.15

// next record U7C U8C G9A U11C C13U
1.29

// next record U7A U8C G9A U10G U11C C12U C13G
1.2

// next record U7C U11C C12A C13A
1.27

// next record U8A G9C U10C U11G C12U
1.08

// next record U7C U8G G9A U10A C13G
1.05

// next record U7G U8A G9U U11G C12U C13G
1.04

// next record U8A U10C C12G
1.3

// next record U8G G9C U10C C12U C13A
1.06

// next record U7G U8A G9U U10C U11C C13U
1.01

Origin of measurements: the RNAGym collection of RNA variant scans (doi:10.1021/acssynbio.7b00057)
